Measured values drawn from BindingDB's records for doi:10.1021/jm100978n for this set.

Assay: Antagonist activity at CCR5 receptor expressed in HeLa-P4 cells co-expressing CD4 assessed as inhibition of infusion to HIV gp120 expressed in CHO-tat10 cells after 20 hrs by cell-cell fusion assay
List of pIC50 values.
Keep in mind that pIC50 stands for -log10 of concentration in molar terms.

Please review the following examples before continuing.
CC(=O)N[C@@H](CCN1[C@@H]2CC[C@H]1C[C@@H](n1c(C)nc3c1CN(C)CC3)C2)c1ccccc1; 8.30
Cc1nc(C(C)C)n([C@H]2C[C@H]3CC[C@@H](C2)N3CC[C@H](NC(=O)C2CCC(F)(F)CC2)c2ccccc2)n1; 8.85

Query :: Can you look up the measured pIC50 of CCC(=O)N1CCc2nc(C)n([C@H]3C[C@H]4CC[C@@H](C3)N4CC[C@H](NC(C)=O)c3ccccc3)c2C1 for me?
Result :: 9.40

Query :: // lookup pIC50 for CC(=O)N[C@@H](CCN1[C@@H]2CC[C@H]1C[C@@H](n1c(C)nc3c1CN(S(C)(=O)=O)CC3)C2)c1ccccc1
Result :: 8.70

Query :: Consider the molecule COC(=O)N[C@@H](CCN1[C@@H]2CC[C@H]1C[C@@H](n1c(C)nc3c1CN(C(C)=O)CC3)C2)c1cccc(F)c1 and give its measured pIC50.
Result :: 9.70

Query :: So what's the measured pIC50 for this one? COC(=O)N1CCc2nc(C)n([C@H]3C[C@H]4CC[C@@H](C3)N4CC[C@H](NC(C)=O)c3cccc(F)c3)c2C1
Result :: 10.00

Query :: Look up pIC50 for this molecule: CC(=O)N[C@@H](CCN1[C@@H]2CC[C@H]1C[C@@H](n1c(C)nc3c1CN(Cc1ccccc1)CC3)C2)c1ccccc1
Result :: 7.54

====

Recorded pIC50, one value per entry.
Test: Antagonist activity at CCR5 receptor expressed in HeLa-P4 cells co-expressing CD4 assessed as inhibition of infusion to HIV gp120 expressed in CHO-tat10 cells after 20 hrs by cell-cell fusion assay
Friendly reminder that pIC50 comes from taking -log10 of the concentration in mol/L.

CC(=O)N[C@@H](CCN1[C@@H]2CC[C@H]1C[C@@H](n1c(C)nc3c1CN(C(C)C)CC3)C2)c1ccccc1; 8.52

Query :: Query: pIC50; subject: COC(=O)N[C@@H](CCN1[C@@H]2CC[C@H]1C[C@@H](n1c(C)nc3c1CN(C(C)=O)CC3)C2)c1ccccc1
Result :: 9.22

Query :: Which pIC50 value is on record for CC(=O)N[C@@H](CCN1[C@@H]2CC[C@H]1C[C@@H](n1c(C)nc3ccccc31)C2)c1ccccc1 ?
Result :: 9.30

Query :: // lookup pIC50 for CC(=O)N[C@@H](CCN1[C@@H]2CC[C@H]1C[C@@H](n1c(C)nc3c1CN(C(C)=O)CC3)C2)c1ccccc1
Result :: 9.40

Query :: Which pIC50 value belongs to COC(=O)N1CCc2nc(C)n([C@H]3C[C@H]4CC[C@@H](C3)N4CC[C@H](NC(C)=O)c3ccccc3)c2C1 ?
Result :: 9.52

Query :: Tell me the measured pIC50 of CC(=O)N[C@@H](CCN1[C@@H]2CC[C@H]1C[C@@H](n1c(C)nc3c1CNCC3)C2)c1ccccc1 , please.
Result :: 8.05

Query :: Can you look up the measured pIC50 of CC(=O)N[C@@H](CCN1[C@@H]2CC[C@H]1C[C@@H](n1c(C)nc3c1CN(C(=O)C(C)C)CC3)C2)c1ccccc1 for me?
Result :: 9.40

Query :: Recorded pIC50 for COC(=O)N[C@@H](CCN1[C@@H]2CC[C@H]1C[C@@H](n1c(C)nc3c1CN(C(=O)OC)CC3)C2)c1cccc(F)c1 , please?
Result :: 9.70
